# SUBJECT_OF_TEST: HLA-A*02:01
# PROTOCOL_DETAILS: IEDB peptide-MHC binding, purified MHC/competitive/radioactivity; bounds were set here for any values at or beyond the usual limits of such assays
# ASSAY_SETUP: source organism: Vaccinia virus WR
Category | rule: reported IC50 within range, see LOW: < 20 nM; MEDIUM: ≥ 20 nM and < 500 nM; HIGH: ≥ 500 nM

Example results:
Exam item: Quick check: band for YIYYFFIRL
Marked response: LOW

Exam item: Hey, which category is PAVVYSTCTV in, do you know?
Marked response: HIGH

Exam item: Class for YLDFLLLLL ?
Marked response: LOW

Others:
Exam item: Class label required: FMFIGSPMYL
Marked response: LOW

Exam item: Which class does YLYQPCDLL fall in?
Marked response: LOW

Exam item: Band of SMYGKAFNHA ?
Marked response: LOW

Exam item: Into which category would you place YTYFSNTILL ?
Marked response: MEDIUM

Exam item: Please report the category associated with ALMAITKNV , nothing else.
Marked response: LOW

Exam item: Returns: class label. Input: ILQMREIIT
Marked response: MEDIUM

Exam item: Hello team, could you let me know which band the following sequence falls into: KILSDENYLL
Marked response: LOW

Exam item: Given YITALNHLVL , name the class its IC50 places it in.
Marked response: MEDIUM

Exam item: Quick check: band for GLSSGFYFEI
Marked response: MEDIUM

Exam item: Which IC50 band matches STIATYIDAL ?
Marked response: HIGH

Exam item: Category lookup for the sequence YVIPDELIDV
Marked response: MEDIUM

Exam item: Please indicate the class for SMPASHNNLA based on its IC50.
Marked response: HIGH

----------
# SUBJECT_OF_TEST: HLA-A*02:02
# PROTOCOL_DETAILS: IEDB peptide-MHC binding, purified MHC/competitive/radioactivity; bounds were set here for any values at or beyond the usual limits of such assays
# ASSAY_SETUP: source organism: Vaccinia virus WR
PROPERTY: IC50
The reply should read as a number followed by its unit.

A selection of reference data follows.
Exam item: Give IC50 for the following sequence: LAYYNSCMLT
Marked response: 12 nM

Exam item: Quote IC50 reported for GIIITVGMLI please.
Marked response: 3580 nM

Now look at this one.
Exam item: Supply reported IC50 belonging to this sequence: IVSKCIVQSV
Marked response: 123 nM

----------
# SUBJECT_OF_TEST: HLA-A*02:01
# PROTOCOL_DETAILS: IEDB peptide-MHC binding, cellular MHC/competitive/fluorescence; bounds were set here for any values at or beyond the usual limits of such assays
# ASSAY_SETUP: source organism: Vaccinia virus WR
PROPERTY: IC50 (µM)
Lab book: enter the figure in µM, no units written.

These solved cases illustrate the format of a correct answer.
Exam item: Provide one value: measured IC50 of QVKELGIAI
Marked response: 10.7

Exam item: Using known records, supply IC50 for IILFQNNDI
Marked response: 13.5

Exam item: Consider the sequence GTVINEDIV . State its measured IC50.
Marked response: 35.7

Exam item: Please look at this sequence and report its IC50: LMLHNPTSET
Marked response: 8.92

Exam item: State, in one line, measured IC50 of STQQNKLVI
Marked response: 41.1

---
Exam item: Give IC50 for KVRIFINDRM
Marked response: 39.7

Exam item: Given DIVGLDLENL , respond with its IC50.
Marked response: 16.6

Exam item: Find the measured IC50 of PASKKESVI and report it.
Marked response: 18.8
